STUDY_TARGET: OCT2 (Homo sapiens, UniProt O15244)
Sequence (O15244 whole entry): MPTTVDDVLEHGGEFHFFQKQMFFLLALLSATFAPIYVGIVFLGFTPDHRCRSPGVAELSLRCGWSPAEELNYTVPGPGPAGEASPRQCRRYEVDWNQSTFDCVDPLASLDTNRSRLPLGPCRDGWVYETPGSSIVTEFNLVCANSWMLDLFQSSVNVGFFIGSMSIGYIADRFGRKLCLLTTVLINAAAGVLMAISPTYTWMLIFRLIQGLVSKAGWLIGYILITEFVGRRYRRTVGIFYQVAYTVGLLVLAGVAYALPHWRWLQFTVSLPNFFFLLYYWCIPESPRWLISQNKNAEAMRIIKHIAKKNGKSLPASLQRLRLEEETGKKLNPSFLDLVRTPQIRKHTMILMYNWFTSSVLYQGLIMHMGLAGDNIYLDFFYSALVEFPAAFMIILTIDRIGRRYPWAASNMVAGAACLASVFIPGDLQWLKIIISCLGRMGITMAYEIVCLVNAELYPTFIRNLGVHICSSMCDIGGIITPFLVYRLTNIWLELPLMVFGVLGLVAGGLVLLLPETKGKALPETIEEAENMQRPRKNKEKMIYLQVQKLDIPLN
METHOD_DESCRIPTION: Inhibition of model substrate uptake in OCT2-overexpressing HEK293 cells
CONDITION_INFO: human, OCT2-overexpressing HEK293 cells, pH 7.4, probe (S,S)-ethambutol (2 μM), (S,S)-Ethambutol inhibition [%], OCT2; 20 μM inhibitor, 2 μM (S,S)-ethambutol, 5 min
REPORTED_PROPERTY: inhibition at 5 min, 20 μM (%)

compound="CCCN[C@@H]1CCc2nc(N)sc2C1 [(R)-Pramipexole]" study_target="OCT2 (Homo sapiens, UniProt O15244)" reported_property="inhibition at 5 min, 20 μM" observed_value=10.5
compound="CCCCN1CCCC[C@@H]1C(=O)Nc1c(C)cccc1C [(R)-Bupivacaine]" study_target="OCT2 (Homo sapiens, UniProt O15244)" reported_property="inhibition at 5 min, 20 μM" observed_value=56.3
compound="CNCC[C@@H](Oc1cccc2ccccc12)c1cccs1 [(R)-Duloxetine]" study_target="OCT2 (Homo sapiens, UniProt O15244)" reported_property="inhibition at 5 min, 20 μM" observed_value=33.2
compound="CNCC[C@H](Oc1cccc2ccccc12)c1cccs1 [(S)-Duloxetine]" study_target="OCT2 (Homo sapiens, UniProt O15244)" reported_property="inhibition at 5 min, 20 μM" observed_value=19.4
compound="CN(C)CCC[C@@]1(c2ccc(F)cc2)OCc2cc(C#N)ccc21 [(S)-Citalopram]" study_target="OCT2 (Homo sapiens, UniProt O15244)" reported_property="inhibition at 5 min, 20 μM" observed_value=-9.7
